Structures can show the parent of a compound that is named as a salt.
property: melting point

Worked cases, melting point given:
[
  {
    "compound": "COCCOCc1cccc2c1CC(N(C)C)CC2 (stereo not drawn) (as salt: hydrochloride)",
    "obs.value": "147 to 148 °C"
  },
  {
    "compound": "C/C=C(\\CC)c1cccc2c1C[C@H](N(C)C)CC2 (as salt: hydrochloride)",
    "obs.value": "158 to 160 °C"
  },
  {
    "compound": "CN(C)C1CCc2cccc(C3(O)CCCCC3)c2C1 (stereo not drawn) (as salt: hydrobromid) (hydrate or solvate)",
    "obs.value": "210 to 211 °C"
  },
  {
    "compound": "CN(C)C1CCc2cccc(C3(O)CCCCCC3)c2C1 (stereo not drawn) (as salt: hydrobromid) (hydrate or solvate)",
    "obs.value": "186 to 187 °C"
  },
  {
    "compound": "Cc1cccc2c1C[C@H](N(C)C)CC2 (as salt: hydrochloride)",
    "obs.value": "180 to 181 °C (dec.)"
  }
]

Consider now this further compound.
-- ask Which measured melting point value corresponds to CN(C)C1CCc2cccc(C3CCCC3)c2C1 (stereo not drawn) (as salt: hydrochloride) ?
-- reply 158 to 159 °C
